// provenance: patent US20250206841A1

Tested on: T1, cynomolgus Trop-2-His protein (cynomolgus, UniProt P09758 27-274 (human entry))
T1 construct: also called cynmolgus Trop-His; Kactus Cat #TRP-CM121; not shown: His tag
T1 chain: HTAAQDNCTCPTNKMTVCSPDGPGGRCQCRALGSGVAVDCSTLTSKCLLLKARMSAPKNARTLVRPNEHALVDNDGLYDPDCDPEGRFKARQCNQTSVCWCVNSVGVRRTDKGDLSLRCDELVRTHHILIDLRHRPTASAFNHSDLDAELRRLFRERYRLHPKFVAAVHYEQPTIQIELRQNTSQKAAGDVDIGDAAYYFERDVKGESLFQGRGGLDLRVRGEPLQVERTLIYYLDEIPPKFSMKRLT
Experiment: BLI (Gator Prime), LEM supernatant Ab on HFC probe
Endpoint: koff (s⁻¹)
Provide the reading as a plain figure in s⁻¹.

Worked examples follow.
Binder | koff [s⁻¹]
9D7 (antibody, V domains shown, Rabbit-derived clone; LEM construct: VH + rabbit IgG CH1 + human IgG1 CH2-CH3) VH: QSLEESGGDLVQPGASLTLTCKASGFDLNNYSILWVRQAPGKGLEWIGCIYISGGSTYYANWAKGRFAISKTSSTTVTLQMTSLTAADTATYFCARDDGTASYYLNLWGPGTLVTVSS VL: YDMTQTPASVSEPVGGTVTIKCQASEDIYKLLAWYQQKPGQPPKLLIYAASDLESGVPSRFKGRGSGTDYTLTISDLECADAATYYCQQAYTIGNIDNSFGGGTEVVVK | 3.9e-05
66A1 (antibody, V domains shown, Rabbit-derived clone; LEM construct: VH + rabbit IgG CH1 + human IgG1 CH2-CH3) VH: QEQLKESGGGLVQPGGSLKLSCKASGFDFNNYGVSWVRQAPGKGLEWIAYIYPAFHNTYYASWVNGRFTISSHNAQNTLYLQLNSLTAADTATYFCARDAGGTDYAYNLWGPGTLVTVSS VL: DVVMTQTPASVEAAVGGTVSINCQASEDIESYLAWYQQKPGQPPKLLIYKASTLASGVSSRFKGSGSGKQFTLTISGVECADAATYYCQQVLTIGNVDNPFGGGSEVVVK | 0.00032

// moving on: another record for koff
Query: What value of measured koff is listed for 72F12 (antibody, V domains shown, Rabbit-derived clone; LEM construct: VH + rabbit IgG CH1 + human IgG1 CH2-CH3) VH: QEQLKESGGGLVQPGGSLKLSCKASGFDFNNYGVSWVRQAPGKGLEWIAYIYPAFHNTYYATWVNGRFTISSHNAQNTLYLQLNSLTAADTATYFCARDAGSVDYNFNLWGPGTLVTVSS VL: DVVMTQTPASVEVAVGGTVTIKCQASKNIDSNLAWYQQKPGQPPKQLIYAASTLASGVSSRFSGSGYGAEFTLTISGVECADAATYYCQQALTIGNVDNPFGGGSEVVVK ?
Reply: 0.00047
